measurement notes: Transport of geniposide across the HNEC monolayer
Assay type: in vitro ADME, human
assay conditions: human, Ge 50 µg·mL^−1 +Bo 111.2 µg·mL^−1
metric: Papp A→B at 180 min, 50 µg·mL^−1 (×10⁻⁶ cm/s)
# unit: ×10⁻⁶ cm/s | format: bare number

Recorded Papp A→B at 180 min, 50 µg·mL^−1 (compound COC(=O)C1=CO[C@@H](O[C@@H]2O[C@H](CO)[C@@H](O)[C@H](O)[C@H]2O)[C@@H]2C(CO)=CC[C@H]12 [geniposide, Geniposide] ): 1.99

---

measurement notes: Transport of geniposide across the HNEC monolayer
Type: in vitro ADME, human
assay conditions: human, Ge 50 µg·mL^−1 +Mu 16.68 µg·mL^−1
metric: Papp A→B at 180 min, 50 µg·mL^−1 (×10⁻⁶ cm/s)
# unit: ×10⁻⁶ cm/s | format: bare number

Recorded Papp A→B at 180 min, 50 µg·mL^−1 (compound COC(=O)C1=CO[C@@H](O[C@@H]2O[C@H](CO)[C@@H](O)[C@H](O)[C@H]2O)[C@@H]2C(CO)=CC[C@H]12 [geniposide, Geniposide] ): 1.97

---

measurement notes: Transport of geniposide across the HNEC monolayer
Format: in vitro ADME, human
assay conditions: human, Ge 50 µg·mL^−1 +Bo 27.8 µg·mL^−1 Mu 4.17 µg·mL^−1
metric: Papp A→B at 180 min, 50 µg·mL^−1 (×10⁻⁶ cm/s)
# unit: ×10⁻⁶ cm/s | format: bare number

Recorded Papp A→B at 180 min, 50 µg·mL^−1 (molecule COC(=O)C1=CO[C@@H](O[C@@H]2O[C@H](CO)[C@@H](O)[C@H](O)[C@H]2O)[C@@H]2C(CO)=CC[C@H]12 [geniposide, Geniposide] ): 1.43

---

measurement notes: Transport of geniposide across the HNEC monolayer
Format: in vitro ADME, human
assay conditions: human, geniposide 100 µg·mL^−1
metric: Papp B→A at 180 min, 100 µg·mL^−1

Recorded Papp B→A at 180 min, 100 µg·mL^−1 (compound COC(=O)C1=CO[C@@H](O[C@@H]2O[C@H](CO)[C@@H](O)[C@H](O)[C@H]2O)[C@@H]2C(CO)=CC[C@H]12 [geniposide, Geniposide] ): 1.19 ×10⁻⁶ cm/s
